Test system: rice (Or)
Assay: Test Example 4: selectivity for a crop plant by flooded paddy field treatment
Type: in vivo
Parameters: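 0-5 phytotoxicity grade; 5 = over 90%; 4 = 70-90%; 3 = 50-70%; 2 = 30-50%; 1 = 10-30%; 0 = under 10%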
Conditions: rice transplanted at second leaf stage, dose 25 gai/10a, 21st day after treatment, index per Table 44
Method: In a 100 cm^2 plastic pot, a paddy field soil was filled and paddled. Then, seeds of barnyard grass (Eo) and monochoria (Mo) were sown, and rice (Or) of second leaf stage was transplanted, and water was introduced to a depth of 3 cm. Next day, a wettable powder prepared in accordance with Formulation Example 1 was diluted with water and dropwise applied to the water surface. The dose was 25 g of the active ingredient per 10 ares. […]
endpoint_name: Or (herbicidal effect index on crop)

[[record]]
compound = "CN(C(=O)Cc1ccc(F)cc1)C(c1ccsc1)c1cncnc1C(F)(F)F (racemic)"
endpoint_name = "Or (herbicidal effect index on crop)"
reported_measurement = 1

[[record]]
compound = "CCC(c1cncnc1C(C)(C)C)N(C)C(=O)Cc1ccc(C)cc1 (racemic)"
endpoint_name = "Or (herbicidal effect index on crop)"
reported_measurement = 1

[[record]]
compound = "C#CCN(C(=O)Cc1ccc(Cl)cc1F)C(c1cncnc1C(F)(F)F)C(C)C (racemic)"
endpoint_name = "Or (herbicidal effect index on crop)"
reported_measurement = 1

[[record]]
compound = "CON=Cc1ncncc1C(C(C)C)N(C)C(=O)Cc1ccc(Cl)cc1 (racemic)"
endpoint_name = "Or (herbicidal effect index on crop)"
reported_measurement = 0

[[record]]
compound = "CCN(C(=O)N(C)C(c1cncnc1C(F)(F)F)C(C)C)c1ccccc1 (racemic)"
endpoint_name = "Or (herbicidal effect index on crop)"
reported_measurement = 1

[[record]]
compound = "CON=CC(c1cncnc1C(C)C)N(C)C(=O)Cc1ccc(C)cc1 (racemic)"
endpoint_name = "Or (herbicidal effect index on crop)"
reported_measurement = 0

[[record]]
compound = "C#CCN(C(=O)Cc1ccc(F)cc1)C(CCC)c1cncnc1CC (racemic)"
endpoint_name = "Or (herbicidal effect index on crop)"
reported_measurement = 1

[[record]]
compound = "CC(C)C(c1cncnc1C#N)N(C)C(=O)Cc1ccc(Cl)cc1 (racemic)"
endpoint_name = "Or (herbicidal effect index on crop)"
reported_measurement = 1

[[record]]
compound = "Cc1ccc(OCC(=O)N(C)C(c2cncnc2C(F)(F)F)C(C)C)cc1 (racemic)"
endpoint_name = "Or (herbicidal effect index on crop)"
reported_measurement = 1


Each recorded value in this set is attributed to patent US6806230B1.
